Please go through the items and note down their viability, T/C.
# Test system: 616215-338-R-J1-PDC complex spheroid viability
# protocol_description: Anticancer human tumor 616215-338-R-J1-PDC patient-derived colon adenocarcinoma cell line growth inhibition [POLQ]
# condition_details: second compound 0.1 µM; first compound 0.01 µM; stronger effect = lower value
Answer with a number only, understood to be in %.

Data request, read-out viability, T/C, for C=CCn1c(=O)c2cnc(Nc3ccc(N4CCN(C)CC4)cc3)nc2n1-c1cccc(C(C)(C)O)n1 + Cc1cccc(N(C)C(=O)C2C(O)CCN2c2nc(C)cc(C(F)(F)F)c2C#N)c1
97.4

Data request, read-out viability, T/C, for CCc1c2c(nc3ccc(O)cc13)-c1cc3c(c(=O)n1C2)COC(=O)[C@]3(O)CC + COC1C(OC(N)=O)C(O)C(Oc2ccc3c(O)c(NC(=O)c4ccc(O)c(CC=C(C)C)c4)c(=O)oc3c2C)OC1(C)C
95.4

Data request, read-out viability, T/C, for Cn1ncnc1[C@H]1c2n[nH]c(=O)c3cc(F)cc(c23)N[C@@H]1c1ccc(F)cc1 + Nc1ccc(C#CCN(C(=O)Cc2ncc(C(F)(F)F)cc2C(F)(F)F)c2ccc(F)cc2)nn1
113

Data request, read-out viability, T/C, for COc1cccc(OCCCN)c1-c1cc(Nc2cnc(C#N)cn2)n[nH]1 + COC1C(OC(N)=O)C(O)C(Oc2ccc3c(O)c(NC(=O)c4ccc(O)c(CC=C(C)C)c4)c(=O)oc3c2C)OC1(C)C
99.3

###

# Tested on: 616215-338-R-J1-PDC complex spheroid viability
# protocol_description: Anticancer human tumor 616215-338-R-J1-PDC cell line growth inhibition [POLQ];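 further: spheroids exposed to compounds for one week before readout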;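 on viability, T/C: percent viability relative to DMSO vehicle wells taken as 100%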
# condition_details: second compound 1 µM; first compound 0.000316 µM; stronger effect = lower value
Please go through the items and note down their viability, T/C.
Answer with a number only, understood to be in %.

Data request, read-out viability, T/C, for CC[C@@]1(O)C(=O)OCc2c1cc1n(c2=O)Cc2cc3c(CN(C)C)c(O)ccc3nc2-1 + Cc1cccc(N(C)C(=O)C2C(O)CCN2c2nc(C)cc(C(F)(F)F)c2C#N)c1
101

Data request, read-out viability, T/C, for CC[C@@]1(O)C(=O)OCc2c1cc1n(c2=O)Cc2cc3c(CN(C)C)c(O)ccc3nc2-1 + Nc1ccc(C#CCN(C(=O)Cc2ncc(C(F)(F)F)cc2C(F)(F)F)c2ccc(F)cc2)nn1
108

Data request, read-out viability, T/C, for CC[C@@]1(O)C(=O)OCc2c1cc1n(c2=O)Cc2cc3c(CN(C)C)c(O)ccc3nc2-1 + COC1C(OC(N)=O)C(O)C(Oc2ccc3c(O)c(NC(=O)c4ccc(O)c(CC=C(C)C)c4)c(=O)oc3c2C)OC1(C)C
101

###

# Test system: 616215-338-R-J1-PDC complex spheroid viability
# protocol_description: Anticancer human tumor 616215-338-R-J1-PDC cell line growth inhibition [POLQ];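 further: spheroids exposed to compounds for one week before readout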
# condition_details: curve of first compound; second compound 0.1 µM
Please go through the items and note down their IC50.

Data request, read-out IC50, for CC(=O)O[C@H]1C(=O)[C@@]2(C)[C@H]([C@H](OC(=O)c3ccccc3)[C@]3(O)C[C@H](OC(=O)[C@H](O)[C@@H](NC(=O)c4ccccc4)c4ccccc4)C(C)=C1C3(C)C)[C@]1(OC(C)=O)CO[C@@H]1C[C@@H]2O + Cc1cccc(N(C)C(=O)C2C(O)CCN2c2nc(C)cc(C(F)(F)F)c2C#N)c1
< 0.00949 µM

Data request, read-out IC50, for CC1COCCN1c1cc(-c2ccnn2C)c2ccnc(-c3ccn[nH]3)c2n1 (stereo not drawn) + Cc1cccc(N(C)C(=O)C2C(O)CCN2c2nc(C)cc(C(F)(F)F)c2C#N)c1
> 10 µM

Data request, read-out IC50, for CC1COCCN1c1cc(C2(S(C)(=N)=O)CC2)nc(-c2ccnc3[nH]ccc23)n1 (stereo not drawn) + COC1C(OC(N)=O)C(O)C(Oc2ccc3c(O)c(NC(=O)c4ccc(O)c(CC=C(C)C)c4)c(=O)oc3c2C)OC1(C)C
> 10 µM

Data request, read-out IC50, for CC1COCCN1c1cc(C2(S(C)(=N)=O)CC2)nc(-c2ccnc3[nH]ccc23)n1 (stereo not drawn) + Cc1cccc(N(C)C(=O)C2C(O)CCN2c2nc(C)cc(C(F)(F)F)c2C#N)c1
> 10 µM

Data request, read-out IC50, for COc1cccc2c1C(=O)c1c(O)c3c(c(O)c1C2=O)CC(O)(C(=O)CO)CC3OC1CC(N)C(O)C(C)O1 (stereo not drawn) + Nc1ccc(C#CCN(C(=O)Cc2ncc(C(F)(F)F)cc2C(F)(F)F)c2ccc(F)cc2)nn1
< 0.0316 µM

Data request, read-out IC50, for CC(=O)O[C@H]1C(=O)[C@@]2(C)[C@H]([C@H](OC(=O)c3ccccc3)[C@]3(O)C[C@H](OC(=O)[C@H](O)[C@@H](NC(=O)c4ccccc4)c4ccccc4)C(C)=C1C3(C)C)[C@]1(OC(C)=O)CO[C@@H]1C[C@@H]2O + Nc1ccc(C#CCN(C(=O)Cc2ncc(C(F)(F)F)cc2C(F)(F)F)c2ccc(F)cc2)nn1
< 0.00949 µM

Data request, read-out IC50, for O=c1[nH]cc(F)c(=O)[nH]1 + Cc1cccc(N(C)C(=O)C2C(O)CCN2c2nc(C)cc(C(F)(F)F)c2C#N)c1
> 10 µM

Data request, read-out IC50, for CC[C@@]1(O)C(=O)OCc2c1cc1n(c2=O)Cc2cc3c(CN(C)C)c(O)ccc3nc2-1 + COC1C(OC(N)=O)C(O)C(Oc2ccc3c(O)c(NC(=O)c4ccc(O)c(CC=C(C)C)c4)c(=O)oc3c2C)OC1(C)C
> 0.1 µM

###

Please go through the items and note down their viability, T/C.
# Test system: 616215-338-R-J1-PDC complex spheroid viability
# protocol_description: Anticancer human tumor 616215-338-R-J1-PDC cell line growth inhibition [POLQ];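 further: spheroids exposed to compounds for one week before readout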;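 on viability, T/C: percent viability relative to DMSO vehicle wells taken as 100%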
# condition_details: second compound 1 µM; first compound 0.316 µM; stronger effect = lower value
Answer with a number only, understood to be in %.

Data request, read-out viability, T/C, for CC(C)n1c(=O)n(C)c2cnc3cc(F)c(-c4ccc(OCCCN5CCCCC5)nc4)cc3c21 + Cc1cccc(N(C)C(=O)C2C(O)CCN2c2nc(C)cc(C(F)(F)F)c2C#N)c1
102

Data request, read-out viability, T/C, for COc1cccc(OCCCN)c1-c1cc(Nc2cnc(C#N)cn2)n[nH]1 + Cc1cccc(N(C)C(=O)C2C(O)CCN2c2nc(C)cc(C(F)(F)F)c2C#N)c1
35.8

Data request, read-out viability, T/C, for O=C(c1cc(Cc2n[nH]c(=O)c3ccccc23)ccc1F)N1CCN(C(=O)C2CC2)CC1 + COC1C(OC(N)=O)C(O)C(Oc2ccc3c(O)c(NC(=O)c4ccc(O)c(CC=C(C)C)c4)c(=O)oc3c2C)OC1(C)C
102

Data request, read-out viability, T/C, for COc1cccc2c1C(=O)c1c(O)c3c(c(O)c1C2=O)CC(O)(C(=O)CO)CC3OC1CC(N)C(O)C(C)O1 (stereo not given) + Cc1cccc(N(C)C(=O)C2C(O)CCN2c2nc(C)cc(C(F)(F)F)c2C#N)c1
71.2

Data request, read-out viability, T/C, for CCc1cc2c(N3CCc4c(cc(Cn5ccnc5)cc4-c4cn(C)nc4C(F)(F)F)C3=O)ccnc2c(OC)n1 + Nc1ccc(C#CCN(C(=O)Cc2ncc(C(F)(F)F)cc2C(F)(F)F)c2ccc(F)cc2)nn1
94.9

###

# System: 616215-338-R-J1-PDC complex spheroid viability
# protocol_description: Anticancer human tumor 616215-338-R-J1-PDC cell line growth inhibition [POLQ];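 further: spheroids exposed to compounds for one week before readout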;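 on viability, T/C: percent viability relative to DMSO vehicle wells taken as 100%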
# condition_details: second compound 1 µM; first compound 0.1 µM; stronger effect = lower value
test_readout: viability, T/C (%)
Answer with a number only, understood to be in %.

Data request, read-out viability, T/C, for C#Cc1c(F)ccc2cc(O)cc(-c3ncc4c(N5CC6CCC(C5)N6)nc(OCC56CCCN5CC(F)C6)nc4c3F)c12 (stereo not drawn) + COC1C(OC(N)=O)C(O)C(Oc2ccc3c(O)c(NC(=O)c4ccc(O)c(CC=C(C)C)c4)c(=O)oc3c2C)OC1(C)C
108

Data request, read-out viability, T/C, for COc1cc(C2c3cc4c(cc3C(OC3OC5COC(C)OC5C(O)C3O)C3COC(=O)C23)OCO4)cc(OC)c1O (stereo not drawn) + Nc1ccc(C#CCN(C(=O)Cc2ncc(C(F)(F)F)cc2C(F)(F)F)c2ccc(F)cc2)nn1
86.3

Data request, read-out viability, T/C, for CC1COCCN1c1cc(C2(S(C)(=N)=O)CC2)nc(-c2ccnc3[nH]ccc23)n1 (stereo not drawn) + COC1C(OC(N)=O)C(O)C(Oc2ccc3c(O)c(NC(=O)c4ccc(O)c(CC=C(C)C)c4)c(=O)oc3c2C)OC1(C)C
99.1

Origin of the recorded values: PubChem BioAssay AID1963843
